molecular target: UniProtKB P19327; assay: Binding affinity towards 5-hydroxytryptamine 1A receptor binding site using [3H]8-OH-DPAT.
Sequence (P19327 whole entry): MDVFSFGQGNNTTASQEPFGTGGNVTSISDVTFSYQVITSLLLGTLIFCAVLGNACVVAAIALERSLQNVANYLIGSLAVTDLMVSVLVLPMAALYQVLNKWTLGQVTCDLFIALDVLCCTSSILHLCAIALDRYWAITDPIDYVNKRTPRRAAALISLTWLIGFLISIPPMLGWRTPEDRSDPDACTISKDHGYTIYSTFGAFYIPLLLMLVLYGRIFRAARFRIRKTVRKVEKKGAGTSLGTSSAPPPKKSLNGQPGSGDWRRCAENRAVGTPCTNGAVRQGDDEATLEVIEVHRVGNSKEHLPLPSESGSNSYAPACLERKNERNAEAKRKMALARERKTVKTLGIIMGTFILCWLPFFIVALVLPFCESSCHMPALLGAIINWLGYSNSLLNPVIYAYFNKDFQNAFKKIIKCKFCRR
pIC50: −log10 of the molar value.
reported property: pIC50

* Fc1ccc(N2CCN(CCCCc3c[nH]c4ccccc34)CC2)cc1 | 7.43
* Fc1ccc(C2CCN(CCCCc3cn(-c4ccc(F)cc4)c4ccccc34)CC2)cc1 | 4.66
* O=C(CC1CCN(CC2CC2)CC1)c1ccc(F)cc1 | 4.36
* COc1ccccc1C1CCN(CCCCc2c[nH]c3ccccc23)CC1 | 7.25
* Fc1ccc(C2CCN(CCCCc3c[nH]c4ccccc34)CC2)cc1 | 7.57
* Fc1ccc(-n2cc(CCCCN3CCC4(CC3)OCc3ccccc34)c3ccccc32)cc1 | 4.68
* c1ccc2c(c1)COC21CCN(CCCCc2c[nH]c3ccccc23)CC1 | 6.89
* c1ccc(C2CCN(CCCCc3c[nH]c4ccccc34)CC2)cc1 | 6.96
* Fc1ccc(C2=CCN(CCCCc3c[nH]c4ccccc34)CC2)cc1 | 7.15

---

target: Sigma non-opioid intracellular receptor 1 (Rattus norvegicus, UniProt Q9R0C9); test: Binding affinity towards sigma receptor binding site 1 using [3H](+)-pentazocine
Sequence (Q9R0C9 whole entry): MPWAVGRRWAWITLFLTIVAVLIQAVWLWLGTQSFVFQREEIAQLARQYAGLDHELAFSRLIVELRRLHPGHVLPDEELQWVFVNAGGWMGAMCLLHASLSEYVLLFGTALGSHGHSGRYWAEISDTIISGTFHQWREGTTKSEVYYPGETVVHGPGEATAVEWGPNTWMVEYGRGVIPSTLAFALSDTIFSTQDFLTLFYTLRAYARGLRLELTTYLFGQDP
reported property: IC50 (nM)

• Cc1ccc(S(=O)(=O)n2cc(CCCCN3CCC4(CC3)OCc3ccccc34)c3ccccc32)cc1 = 10
• c1ccc2c(c1)COC21CCN(CCCCc2cn(-c3ccsc3)c3ccccc23)CC1 = 7
• Fc1ccc(-n2cc(CCCN3CCC4(CC3)OCc3ccccc34)c3ccccc32)cc1 = 10
• c1ccc2c(c1)COC21CCN(CCCCc2cn(-c3ccncc3)c3ccccc23)CC1 = 14

---

target: Sigma non-opioid intracellular receptor 1 (Rattus norvegicus); assay: Ratio of the binding affinities for sigma-1 and sigma 2 type receptors, ratio of IC50
reported property: Ratio

• CS(=O)(=O)n1cc(CCCCN2CCC3(CC2)OCc2ccccc23)c2ccccc21 = 26
• Cc1ccc(S(=O)(=O)n2cc(CCCCN3CCC4(CC3)OCc3ccccc34)c3ccccc32)cc1 = 59
• Fc1ccc(-n2cc(CCN3CCC4(CC3)OCc3ccccc34)c3ccccc32)cc1 = 5

---

In this section, each of the compounds is paired with its reported IC50.
target: Sigma 2 receptor; experiment: Binding affinity towards sigma receptor binding site 2 using [3H]DTG of whole rat brain homogenates except cerebellum
reported property: IC50 (nM)

• Fc1ccc(C2CCN(CCCCc3cn(-c4ccc(F)cc4)c4ccccc34)CC2)cc1 = 0.27
• Fc1ccc(-n2cc(CN3CCC4(CC3)OCc3ccccc34)c3ccccc32)cc1 = 4.7
• c1ccc2c(c1)COC21CCN(CCCCc2c[nH]c3ccccc23)CC1 = 0.41
• CS(=O)(=O)n1cc(CCCCN2CCC3(CC2)OCc2ccccc23)c2ccccc21 = 0.05
• Fc1ccc(C2CCN(CCCCc3c[nH]c4ccccc34)CC2)cc1 = 4
• Fc1ccc(N2CCN(CCCCc3cn(-c4ccc(F)cc4)c4ccccc34)CC2)cc1 = 7.5
• c1ccc2c(c1)COC21CCN(CCCCc2cn(-c3ccsc3)c3ccccc23)CC1 = 0.25
• c1ccc(CN2CCC3(CCCc4ccccc43)CC2)cc1 = 12
• Fc1ccc(N2CCN(CCCCc3c[nH]c4ccccc34)CC2)cc1 = 1.3

---

Each entry below lists one item and its recorded IC50 value.
molecular target: D(2) dopamine receptor (Rattus norvegicus); assay: Binding affinity towards Dopamine receptor D2 binding site using [3H]spiroperidol.
Sequence (P61169 whole entry): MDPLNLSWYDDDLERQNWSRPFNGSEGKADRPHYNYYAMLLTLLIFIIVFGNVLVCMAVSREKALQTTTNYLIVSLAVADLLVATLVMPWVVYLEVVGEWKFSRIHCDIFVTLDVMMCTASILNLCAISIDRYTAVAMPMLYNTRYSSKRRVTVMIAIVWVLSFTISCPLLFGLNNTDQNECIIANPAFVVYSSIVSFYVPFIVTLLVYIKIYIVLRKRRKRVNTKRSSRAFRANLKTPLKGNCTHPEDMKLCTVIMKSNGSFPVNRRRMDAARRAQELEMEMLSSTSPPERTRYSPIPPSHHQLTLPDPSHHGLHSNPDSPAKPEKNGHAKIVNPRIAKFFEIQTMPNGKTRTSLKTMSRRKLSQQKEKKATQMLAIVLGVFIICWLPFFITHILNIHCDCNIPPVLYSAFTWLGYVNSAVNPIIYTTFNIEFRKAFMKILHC
reported property: IC50 (nM)

• Fc1ccc(C2CCN(CCCCc3c[nH]c4ccccc34)CC2)cc1 = 160
• COc1ccccc1N1CCN(CCCCc2c[nH]c3ccccc23)CC1 = 15
• Fc1ccc(-n2cc(CCCCN3CCC4(CC3)OCc3ccccc34)c3ccccc32)cc1 = 800
• Fc1ccc(C2=CCN(CCCCc3c[nH]c4ccccc34)CC2)cc1 = 51
• c1ccc(C2CCN(CCCCc3c[nH]c4ccccc34)CC2)cc1 = 45
